Recorded values, source the Biogen ADME set (Fang et al. 2023).

outcome_measure: intrinsic clearance, human liver microsomes (mL/min/kg)

Recorded intrinsic clearance, human liver microsomes, per entry:
>  <molecule>
COc1cc(/C=C2\CCCN([C@@H](C)c3ccc(F)cc3)C2=O)ccc1-n1cnc(C)c1

>  <quantitative_result>
44.4

$$$$
>  <molecule>
COc1cccc(Cc2cnc(N)s2)c1

>  <quantitative_result>
17.8

$$$$
>  <molecule>
CNC(=O)c1ccccc1Nc1nc(Nc2ccc(N3CCOCC3)cc2OC)ncc1Cl

>  <quantitative_result>
14.9

$$$$
>  <molecule>
O=C(NCCN1CCC(n2c(=O)[nH]c3cc(Cl)ccc32)CC1)c1ccc(F)cc1

>  <quantitative_result>
60.9

$$$$
>  <molecule>
Nc1nc2ccccc2n1CCCc1ccccc1

>  <quantitative_result>
13.4

$$$$
>  <molecule>
Cc1nnc(CN(C)CC(C)Oc2ccc(Cl)c(Cl)c2)n1C (stereo not drawn)

>  <quantitative_result>
132

$$$$

a = Clc1cc2ncc(-n3ccnc3)nc2cc1Cl
b = NC1CC(NC(=O)c2ccc(-c3cn[nH]c3)cn2)C12CCC2 (stereo not drawn)
c = Cc1ccc(NC(=O)OC(C)(C)C)c2c1N(C(=O)[C@H]1CCCO1)CCC2
Which order do these items take when sorted by rising intrinsic clearance, human liver microsomes? List them. Could you list the labels in the order requested? b, a, c
(b: 8.51 mL/min/kg, a: 16.8 mL/min/kg, c: 33.6 mL/min/kg)

a = COCCCNc1nnc(-c2ccncc2)s1
b = NC(=O)c1csc(CN2CCc3cc(F)ccc3C2)c1
// compare measured intrinsic clearance, human liver microsomes, left a , right b , return larger Mark your selection by writing its label. a
